- Tested on: tumor cells line Colo205
- test.method.notes: Colo205 cell count; also: test concentration or dose not given here
- Assay type: cell-based
- reported.conditions: compared to cells treated with culture medium only
Below, each of the molecules is paired with its reported Relative number of cells (% ± standard deviation) value.
Be sure to follow the number with its unit.

Some molecules with known Relative number of cells (% ± standard deviation) results, for comparison:
molecule: CC(C)=CCOc1ccc(C(C)=C(C#N)C#N)cc1 [Compound 2]
subject.of.test: tumor cells line Colo205
measurement: 12.7 ± 0.339%
//
molecule: O=CC=C(Cl)c1ccc(OC(=O)c2ccccc2)cc1OC(=O)c1ccccc1 [Compound 27]
subject.of.test: tumor cells line Colo205
measurement: 32.3 ± 1.017%
//
molecule: N#CC(C#N)=C/C=C(\Cl)c1ccccc1OC(=O)c1ccccc1 [Compound 6]
subject.of.test: tumor cells line Colo205
measurement: 12.7 ± 0.339%

Please find the next molecule below.
Name the reported Relative number of cells (% ± standard deviation) value associated with the molecule CC(=O)c1ccc(OCC=C(C)C)cc1 [Compound 1, 4-(3-methylbut-2-enyl-oxyi)acetophenone]
70.2 ± 0.339%
